# Study system: APOL1 G2 (Homo sapiens, UniProt O14791, DEL388-389)
# Construct: expressed in transfected cells; host or cells: HEK293 T-REx clonal line stably expressing GCaMP6f (HEK T-REx/GCaMP6f/APOL1 G2 K6.3), doxycycline induced
# Sequence (O14791 with tags, fused parts or gaps DEL388-389): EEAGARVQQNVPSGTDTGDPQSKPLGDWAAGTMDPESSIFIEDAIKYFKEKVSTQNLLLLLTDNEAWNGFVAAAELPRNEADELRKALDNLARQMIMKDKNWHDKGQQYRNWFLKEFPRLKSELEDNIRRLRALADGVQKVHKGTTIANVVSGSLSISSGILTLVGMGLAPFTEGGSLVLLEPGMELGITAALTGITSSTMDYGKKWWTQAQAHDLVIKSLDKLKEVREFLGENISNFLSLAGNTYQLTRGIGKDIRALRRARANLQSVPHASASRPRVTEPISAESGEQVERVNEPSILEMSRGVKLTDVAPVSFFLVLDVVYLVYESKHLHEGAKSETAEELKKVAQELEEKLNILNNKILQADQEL
# Method summary: APOL1-mediated calcium transport (calcium influx) assay, HEK T-REx/GCaMP6f/APOL1 G2 K6.3 cells, FLIPR TETRA
# Format: cell-based
# Condition info: prevention of calcium influx; geometric mean of at least 2 assay runs; † = average of a technical replicate from a single assay run

Compound	Study system	AC50 [nM]
C[C@@H](CN1CCC2(CC1)C(=O)Nc1ccc(Cl)cc12)Oc1ccc(S(C)(=O)=O)cc1 (single isomer, unassigned)	APOL1 G2 (Homo sapiens, UniProt O14791, DEL388-389)	1050
O=C(c1ccc(OCCN2CCC3(CC2)C(=O)Nc2ccc(Cl)cc23)cc1F)N1CC(O)C1	APOL1 G2 (Homo sapiens, UniProt O14791, DEL388-389)	1000
CS(=O)(=O)C1(c2ccc(OCCN3CCC4(CC3)C(=O)Nc3ccc(Cl)cc34)cc2)CC2(COC2)C1	APOL1 G2 (Homo sapiens, UniProt O14791, DEL388-389)	574
C[C@]1(O)C[C@@H](n2cnc3cc(OCCN4CCC5(CC4)C(=O)Nc4c(I)cc(Cl)cc45)cc(C(F)(F)F)c32)C1	APOL1 G2 (Homo sapiens, UniProt O14791, DEL388-389)	935
CC1(O)CN(c2nccc3cc(OCCN4CCC5(CC4)C(=O)Nc4ccc(Cl)cc45)cnc23)C1	APOL1 G2 (Homo sapiens, UniProt O14791, DEL388-389)	1400
C[C@]1(O)C[C@@H](N2C(=O)Cc3cc(OCCN4CCC5(CC4)C(=O)Nc4ccc(Cl)cc45)cnc32)C1	APOL1 G2 (Homo sapiens, UniProt O14791, DEL388-389)	469
O=C1CCc2cc(OCCN3CCC4(CC3)C(=O)Nc3ccc(Cl)cc34)ccc2N1[C@H]1C[C@@H](O)C1	APOL1 G2 (Homo sapiens, UniProt O14791, DEL388-389)	529

* * *

Measured EC50 accompanies every entry in the list below.
# System: HEK293 cells overexpressing APOL1 G2
# Method summary: APOL1 G2 HEK293 cell rescue assay (reversal of cell death caused by overexpression of APOL1)
# Type: cell-based
# Condition info: Homo sapiens, HEK293, HEK293 overexpressing APOL1 G2; geometric mean of at least 2 assay runs; † = single assay run
Reported property: EC50 (nM)

Compound	Reported property	Value
O=C1Nc2ccc(Cl)cc2C12CCN(CCOc1cnc(C3(O)CC3)nc1)CC2	EC50	112
O=C1Nc2ccc(Cl)cc2C12CCN(CCOc1ccc3c(c1)CCNS3(=O)=O)CC2	EC50	42.7
C[C@]1(O)C[C@@H](N2C(=O)Cc3cc(OCCN4CCC5(CC4)C(=O)Nc4ccc(Cl)cc45)cnc32)C1	EC50	36.4
CC(O)c1ncc(OCCN2CCC3(CC2)C(=O)Nc2ccc(C(F)F)cc23)cc1C(F)(F)F (stereo not shown) [Compound 296]	EC50	77.3

* * *

# System: Trypanosoma brucei Lister 427 VSG221 with APOL1 G1 recombinant protein
# Method summary: APOL1 G1 trypanosome cell rescue assay (Example B5)
# Format: cell-based
# Condition info: Trypanosoma brucei, 20 h, read-out: APOL1 G1 Trypanosome Rescue EC50, Trypanosoma brucei Lister 427 VSG221 with APOL1 G1 recombinant protein, 20 hours, CellTiter-Glo; geometric mean of at least 2 assay runs; † = single assay run
Measured EC50 accompanies every entry in the list below.

Compound	Units	EC50
CN1C(=O)C2(CCN(CCOc3ccc(S(=O)(=O)CCCS(C)(=O)=O)cc3)CC2)c2cc(Cl)ccc21	nM	612
CS(=O)(=O)c1ccc(OCCN2CCC3(CC2)C(=O)N(CCO)c2ccc(C#N)cc23)cc1C(F)F	nM	407
CC[C@]1(O)C[C@@H](N2C(=O)CCc3cc(OCCN4CCC5(CC4)C(=O)Nc4ccc(Cl)cc45)cnc32)C1 (single isomer, unassigned)	nM	45.9
CS(=O)(=O)c1ccc(OCCN2CCC3(CC2)C(=O)N(CCO)c2ccc(Cl)cc23)cc1C(F)F	nM	105
Cn1c(=O)oc2cc(OCCN3CCC4(CC3)C(=O)Nc3ccc(Cl)cc34)ccc21	nM	176
O=C1Nc2ccc(Cl)cc2C12CCN(CCOc1ccc3[nH]ncc3c1)CC2	nM	383
